Just for reference, PubChem BioAssay (NCI) is where these values come from.

This listing pairs compounds with measured TGI.
System: HOP-92 NSCLC
procedureDetails: NCI tumour cell line growth inhibition, 48 h
measuredQuantity: TGI (µM)

Nc1c2c(=O)[nH]c(=O)c2c(N)c2c(=O)c3ccccc3c(=O)c12; 51.9
Nc1c(Br)cc(Br)c2c1[nH]c(=O)c1ccccc12; 8.57
CC[C@H](Nc1nc(NCc2cnc(C)cc2C)c2ncn(C(C)C)c2n1)[C@@H](C)O; 2.27
Clc1ccc2c(c1)C1C(CO2)C(c2ccccc2)=NN1c1ccccc1 (stereo not given); 58.9

###

System: A498 renal
procedureDetails: NCI tumour cell line growth inhibition, 48 h; in the data active = GI50 below about 0.43 µM; inactive = the rest
Labels: Yes = active, No = inactive

O=c1nc2n(-c3ccc(Cl)cc3)c3ccc([N+](=O)[O-])cc3cc-2c(=O)[nH]1; No
Fc1ccc2c(c1)c(-c1nc(-c3c[nH]c4ncccc34)cs1)cn2CCCN1CCCCC1; No
O=C(c1ccco1)c1nc2cc(Cl)ccc2[n+]([O-])c1C(F)(F)F; No
CCOC(=O)c1[nH]c(Br)c(-c2ccc(Br)cc2)c1Br; Yes
COC(=O)c1c2c(c(C)[n+]([O-])c1C)C(=O)C=C(NCc1ccc(F)c(Cl)c1)C2=O; No
C/C(=N/Nc1nc2ccccc2n1C)c1ccccn1; Yes
O=C(CNc1ccc2c(c1)C(=O)c1ccccc1C2=O)Nc1ccc2c(c1)C(=O)c1ccccc1C2=O; No
COc1ncc(-c2ccc3nccc(-c4ccnnc4)c3c2)cc1NS(=O)(=O)c1ccc(F)cc1F; Yes
COc1cc2cc(Oc3ccc(NC(=O)Nc4cccc(C(F)(F)F)c4)cc3)c(C)nc2cc1OC; No
O=c1c2ccccc2n(C[C@H]2CO2)c2ccccc12; No
COc1ccc(-n2nnnc2-c2c[nH]c3c(F)cc(F)cc23)cc1; No
O=c1ccc2nc(-c3ccccc3)nn(-c3ccccn3)c-2c1; No
N[C@@H]1CCCC[C@H]1N.O=C([O-])C(=O)[O-].[Pt+4]; No
CCc1c(C#N)c(S[C@@H](C(N)=O)c2ccccc2)nc(N(C)C)c1C#N; No
N#Cc1nc2c(S(=O)(=O)c3ccccc3)c(N)n(Cc3cccnc3)c2nc1C#N; No
CC(C)[C@H](CO)Nc1nc(Nc2ccc(C(=O)NCCNS(=O)(=O)c3cccc4c(N(C)C)cccc34)c(Cl)c2)c2ncn(C(C)C)c2n1; No
Cc1ccccc1N=Nc1ccc(NC(=O)c2ccnn2C)c(C)c1; No
COC1CC2CCC(C)C(O)(O2)C(=O)C(=O)N2CCCCC2C(=O)OC(C(C)CC2CCC(O)C(OC)C2)CC(=O)C(C)C=C(C)C(O)C(OC)C(=O)C(C)CC(C)/C=C/C=C/C=C1C (centres undefined); Yes
COc1cc(-c2nn(-c3cccc(NC(=O)Nc4cc(C(F)(F)F)cc(C(F)(F)F)c4)c3)cc2-c2ccncc2)ccc1Cl; No

###

Measured TGI, listed per entry.
Tested on: K-562 leukemia
procedureDetails: NCI tumour cell line growth inhibition, 48 h
measuredQuantity: TGI

Cn1nc2ccc3nccc(N4CCN(CCO)CC4)c3c2n1; > 100 µM
O=c1cc2ccccc2nn1Cc1cccc(Cl)c1; > 100 µM
O=c1[nH]/c(=C/c2ccc(OCc3ccccc3)cn2)c(=O)[nH]/c1=C/c1ccc([N+](=O)[O-])cc1; > 100 µM
O=C1c2ccccc2C(=O)c2c(Nc3ccc4c5c(cccc35)C(=O)c3ccccc3-4)cccc21; > 100 µM
Cc1ccccc1C(=O)c1ccccc1O; > 100 µM
COC(=O)c1c2c(c(C)[n+]([O-])c1C)C(=O)C=C(NCc1ccc(F)c(Cl)c1)C2=O; 5.27 µM
